Test system: carbapenemase producing K. pneumoniae
Assay: MIC by broth micro-dilution (CLSI), carbapenemase producing K. pneumoniae
Type: cell-based, Klebsiella pneumoniae
Conditions: Klebsiella pneumoniae, ATCCBAA1705, KPC-2 K. pneumoniae ATCC BAA-1705; read-out: MIC

compound: C[C@@H](NC(=O)C(F)F)[C@H]1C(=O)N2C(C(=O)O)=C(S[C@@H]3CNC(C[N+]4(C)CCCC4)C3)[C@H](C)[C@H]12 (some centres unmarked)
limit-sign: =
MIC / µg/mL: 64

compound: C[C@@H](NC(=O)C(F)F)[C@H]1C(=O)N2C(C(=O)O)=C(S[C@@H]3CN[C@H](C(=O)N4C[C@@H](N)C[C@H]4C(=O)N(C)C)C3)[C@H](C)[C@H]12
limit-sign: =
MIC / µg/mL: 8

compound: C[C@@H](NC(=O)C(F)F)[C@H]1C(=O)N2C(C(=O)O)=C(SC3CN(C4=NCCS4)C3)[C@H](C)[C@H]12
limit-sign: =
MIC / µg/mL: 2

compound: CNCC(=O)N[C@@H]1CCN(C(=O)[C@@H]2C[C@H](SC3=C(C(=O)O)N4C(=O)[C@H]([C@@H](C)NC(=O)C(F)F)[C@H]4[C@H]3C)CN2)C1
limit-sign: =
MIC / µg/mL: 8

compound: CCOC(=O)C(=O)N[C@H](C)[C@H]1C(=O)N2C(C(=O)O)=C(S[C@@H]3CN[C@H](C(=O)N4CC[C@H](N)C4)C3)[C@H](C)[C@H]12
limit-sign: =
MIC / µg/mL: 16

compound: COC(=O)C(=O)N[C@H](C)[C@H]1C(=O)N2C(C(=O)O)=C(S[C@@H]3CN[C@H](C(=O)N(C)C)C3)[C@H](C)[C@H]12
limit-sign: =
MIC / µg/mL: 4

compound: C[C@@H](NC(=O)Cn1cnnn1)[C@H]1C(=O)N2C(C(=O)O)=C(S[C@@H]3CN[C@H](C(=O)N4CC[C@@H](NC(=O)CN)C4)C3)[C@H](C)[C@H]12
limit-sign: =
MIC / µg/mL: 1

compound: C[C@@H](NC(=O)Cn1nnc(C(F)(F)F)n1)[C@H]1C(=O)N2C(C(=O)O)=C(S[C@@H]3CN[C@H](C(=O)N4CC[C@@H](N)C4)C3)[C@H](C)[C@H]12
limit-sign: =
MIC / µg/mL: 32

compound: C[C@@H](NC(=O)[C@H]1CCCO1)[C@H]1C(=O)N2C(C(=O)O)=C(S[C@@H]3CN[C@H](C(=O)N(C)C)C3)[C@H](C)[C@H]12
limit-sign: >
MIC / µg/mL: 128

compound: C[C@@H](NC(=O)Cn1cnnn1)[C@H]1C(=O)N2C(C(=O)O)=C(S[C@@H]3CN[C@H](C(=O)N4CC(C)(N)C4)C3)[C@H](C)[C@H]12
limit-sign: =
MIC / µg/mL: 2

compound: COCCNCC(=O)N[C@H](C)[C@H]1C(=O)N2C(C(=O)O)=C(S[C@@H]3CN[C@H](C(=O)N(C)C)C3)[C@H](C)[C@H]12
limit-sign: =
MIC / µg/mL: 4

====

Test system: carbapenemase producing K. pneumoniae
Test: MIC by broth micro-dilution (CLSI), carbapenemase producing K. pneumoniae
Format: cell-based, Klebsiella pneumoniae
Conditions: Klebsiella pneumoniae, ATCCBAA1705, KPC-2 K. pneumoniae ATCC BAA-1705; read-out: MIC
Documented MIC across a set of compounds

item-smiles: C[C@@H](NC(=O)C(F)F)[C@H]1C(=O)N2C(C(=O)O)=C(S[C@@H]3CN[C@H](C(=O)N4CC[C@H](NC5CC5)C4)C3)[C@H](C)[C@H]12
units-label: µg/mL
MIC: 8

item-smiles: C[C@@H](NC(=O)Cn1cnnn1)[C@H]1C(=O)N2C(C(=O)O)=C(S[C@@H]3CN[C@H](C(=O)N4CCC5(CCNCC5)C4)C3)[C@H](C)[C@H]12
units-label: µg/mL
MIC: 1

item-smiles: C[C@@H](NC(=O)CCn1cnnn1)[C@H]1C(=O)N2C(C(=O)O)=C(S[C@@H]3CN[C@H](C(=O)N4CC[C@@H](N)C4)C3)[C@H](C)[C@H]12
units-label: µg/mL
MIC: 8
